tested on: STS26T; assay: relative IC50 (inflection point of fitted dose-response curve, CellTox-Green cytotoxicity, 72 h; top asymptote may be below 50%); higher = less potent
For each of the molecules below, state its relative IC50.

Use the examples below as a reference point.
{"Molecule": "C=C1C[C@@H]2[C@H](CC[C@]3(C)C(=O)CC[C@@H]23)[C@@]2(C)C=CC(=O)C=C12", "Target of assay": "STS26T", "relative IC50": "> 10000 nM"}
{"Molecule": "CN(C)C(=N)NC(=N)N", "Target of assay": "STS26T", "relative IC50": "> 100000 nM"}
{"Molecule": "CN(C)c1nc(N(C)C)nc(N(C)C)n1", "Target of assay": "STS26T", "relative IC50": "> 10000 nM"}
{"Molecule": "Cc1ccc([N+](=O)[O-])cc1S(=O)(=O)N(C)/N=C/c1cnc2ccc(Br)cn12", "Target of assay": "STS26T", "relative IC50": "160 nM"}
{"Molecule": "CC(C)Cn1cnc2c(N)nc3ccccc3c21", "Target of assay": "STS26T", "relative IC50": "> 2500 nM"}

# per-item lookup of relative IC50; items listed below
1. CCN(CC)CCNC(=O)c1c(C)[nH]c(/C=C2\C(=O)Nc3ccc(F)cc32)c1C
2. CC[C@@H]1C(=O)N(C)c2cnc(Nc3ccc(C(=O)N[C@H]4CC[C@H](N5CCN(CC6CC6)CC5)CC4)cc3OC)nc2N1C(C)C
3. COc1cc(CCc2cc(NC(=O)c3ccc(N4CC(C)NC(C)C4)cc3)n[nH]2)cc(OC)c1 (stereo unspecified)
4. CCN(CC)CCOc1ccc(/C(=C(/Cl)c2ccccc2)c2ccccc2)cc1
5. COc1cc2/c(=N/c3ccc(Br)cc3F)nc[nH]c2cc1OCC1CCN(C)CC1
6. CC(C)(C#N)c1cc(Cn2cncn2)cc(C(C)(C)C#N)c1
7. Nc1ccn([C@@H]2O[C@H](CO)[C@@H](O)C2(F)F)c(=O)n1
8. O=C(O)CCCCC(CCSCc1ccccc1)SCc1ccccc1 (stereo unspecified)

A:
1. > 1000 nM
2. 2.68 nM
3. > 1000 nM
4. 2840 nM
5. > 1000 nM
6. > 10000 nM
7. 1.22 nM
8. > 10000 nM

###

For each of the compounds below, state its % inhibition.
system: S462; experiment: % inhibition of CellTiter-Glo viability at highest tested concentration (72 h), relative to DMSO and benzethonium chloride controls; higher = more inhibition
Answers are plain numbers, in %.

# per-item lookup of % inhibition; items listed below
1. Cc1ccc([N+](=O)[O-])cc1S(=O)(=O)N(C)/N=C/c1cnc2ccc(Br)cn12 [PIK-75] (max concentration tested 10000 nM)
2. C[C@]1(O)C[C@@H](c2nc(-c3ccc4ccc(-c5ccccc5)nc4c3)c3c(N)nccn32)C1 [Linsitinib] (max concentration tested 10000 nM)
3. Cc1cc2c(C(C)C)c(O)c(O)c(C=O)c2c(O)c1-c1c(C)cc2c(C(C)C)c(O)c(O)c(C=O)c2c1O [AT 101] (max concentration tested 100000 nM)
4. CC[C@@H]1C(=O)N(C)c2cnc(Nc3ccc(C(=O)N[C@H]4CC[C@H](N5CCN(CC6CC6)CC5)CC4)cc3OC)nc2N1C(C)C [Volasertib] (max concentration tested 1000 nM)
5. Cn1cncc1[C@@](N)(c1ccc(Cl)cc1)c1ccc2c(c1)c(-c1cccc(Cl)c1)cc(=O)n2C [Tipifarnib] (max concentration tested 10000 nM)
6. COCC1(CO)C(=O)C2CCN1CC2 (stereo unspecified) [Prima-1 Met] (max concentration tested 10000 nM)

A:
102
30.7
95
95.9
75.3
19.1
